System: Staphylococcus aureus MW2 delta-mecA (mecA-)
Test: normalized GFP fluorescence (growth of mecA- strain) (fraction of control range); higher = more growth of mecA- strain
Conditions: compound concentration: 150 uM; cefoxitin: subinhibitory; fluorescent label: GFP
Structures can show the parent of a compound that is named as a salt.
Measured normalized GFP fluorescence accompanies every entry in the list below.

compound | normalized GFP fluorescence
CN1CCC(=C2c3ccccc3CCc3sccc32)CC1 [Pizotifen malate] | 0.00361
Nc1nc(Cl)nc2c1ncn2[C@H]1C[C@H](O)[C@@H](CO)O1 | 0.546
CC(=O)Oc1ccc(C(c2ccc(OC(C)=O)cc2)c2ccccn2)cc1 | 0.399
S=P(N1CC1)(N1CC1)N1CC1 | 0.213
Nc1ncn([C@H]2C[C@H](O)[C@@H](CO)O2)c(=O)n1 | 0.242
Cc1nnc(C(C)C)n1C1C[C@H]2CC[C@@H](C1)N2CC[C@H](NC(=O)C1CCC(F)(F)CC1)c1ccccc1 (stereo in doubt) | 0.747
NC(=O)N1c2ccccc2C=Cc2ccccc21 | 0.497
OC(CCN1CCCCC1)(c1ccccc1)C1CC2C=CC1C2 (centres undefined) [Biperiden hydrochloride] | 0.119
COCCCN1CCC(NC(=O)c2cc(Cl)c(N)c3c2OCC3)CC1 [Prucalopride] | 0.256

----------
Test system: Staphylococcus aureus MW2 (mecA+)
Experiment: normalized DsRed fluorescence (growth of mecA+ strain) (fraction of control range); higher = more growth of mecA+ strain
Details: compound concentration: 150 uM; cefoxitin: subinhibitory; fluorescent label: DsRed

compound | normalized DsRed fluorescence
CC[N+](C)(C)Cc1ccccc1Br | 0.523
Cc1cn([C@@H]2C[C@@H](O)[C@H](CO)O2)c(=O)[nH]c1=O [Telbivudine (Sebivo, Tyzeka)] | 0.951
OCCN1CCN(CCCN2c3ccccc3Sc3ccc(C(F)(F)F)cc32)CC1 | 1.68
N#Cc1c(N(CC(=O)O)CC(=O)O)sc(C(=O)O)c1CC(=O)O [Strontium ranelate (Protelos)] | 0.694
C=CC(=O)N1CCC[C@@H](n2nc(-c3ccc(Oc4ccccc4)cc3)c3c(N)ncnc32)C1 | 1.1
CN(C)CCC[C@@]1(c2ccc(F)cc2)OCc2cc(C#N)ccc21 | 0.762
CN(C)C(=N)NC(=N)N | 0.887
CCOC(=O)c1ncn2c1CN(C)C(=O)c1cc(F)ccc1-2 | 0.611
N#C[C@@H]1C[C@@H]2C[C@@H]2N1C(=O)[C@@H](N)C12CC3CC(CC(O)(C3)C1)C2 | 0.518
CNCC[C@@H](Oc1ccccc1C)c1ccccc1 | 0.638
NCCNCCNCCN | 0.66

----------
System: Staphylococcus aureus MW2 delta-mecA (mecA-)
Experiment: normalized GFP fluorescence (growth of mecA- strain) (fraction of control range); higher = more growth of mecA- strain
Settings: compound concentration: 150 uM; cefoxitin: subinhibitory; fluorescent label: GFP
Where a name gives a salt, the structure may show the parent alone.
outcome_measure: normalized GFP fluorescence

compound | reported_value
COC(=O)N[C@H](C(=O)N1CCC[C@H]1c1ncc(-c2ccc(-c3ccc(-c4cnc([C@@H]5CCCN5C(=O)[C@@H](NC(=O)OC)C(C)C)[nH]4)cc3)cc2)[nH]1)C(C)C | 0.242
Cc1ccnc(NS(=O)(=O)c2ccc(N)cc2)n1 | 0.459
COCCOC(=O)C1=C(C)NC(C)=C(C(=O)OC/C=C/c2ccccc2)C1c1cccc([N+](=O)[O-])c1 (configuration not stated) | 0.176
CC#CCn1c(N2CCC[C@@H](N)C2)nc2c1c(=O)n(Cc1nc(C)c3ccccc3n1)c(=O)n2C | 0.315
CCOC(=O)C1=C[C@@H](OC(CC)CC)[C@H](NC(C)=O)[C@@H](N)C1 | 0.257
C[N+]1(C)[C@@H]2CC[C@H]1C[C@@H](OC(=O)C(O)c1ccccc1)C2 (some centres not stated) | 0.29
CCN(CCCCOC(=O)c1ccc(OC)c(OC)c1)C(C)Cc1ccc(OC)cc1 (configuration not stated) | 0.41
COc1cc2c3cc1Oc1cc(ccc1O)C[C@@H]1c4c(cc(OC)c(O)c4Oc4ccc(cc4)C[C@@H]3N(C)CC2)CC[N+]1(C)C | 0.357
C#C[C@]1(O)CC[C@H]2[C@@H]3CCc4cc(O)ccc4[C@H]3CC[C@@]21C | 0.246
Oc1ncnc2[nH]ncc12 | 0.524
CC1(C)O[C@@H]2C[C@H]3[C@@H]4CCC5=CC(=O)C=C[C@]5(C)[C@@]4(F)[C@@H](O)C[C@]3(C)[C@]2(C(=O)CO)O1 | 0.603
CC[N+](CC)(CC)CCOc1cccc(OCC[N+](CC)(CC)CC)c1OCC[N+](CC)(CC)CC | 0.163
CCCCCCCN(CC)CCCC(O)c1ccc(NS(C)(=O)=O)cc1 (configuration not stated) [Ibutilide fumarate] | 0.723
CCC(C)n1ncn(-c2ccc(N3CCN(c4ccc(OCC5COC(Cn6cncn6)(c6ccc(Cl)cc6Cl)O5)cc4)CC3)cc2)c1=O (configuration not stated) | 0.389
OC(Cn1cncn1)(Cn1cncn1)c1ccc(F)cc1F | 0.417
COc1cc(C2Oc3ccc(C4Oc5cc(O)cc(O)c5C(=O)C4O)cc3OC2CO)ccc1O (configuration not stated) [Silymarin (Silybin B)] | 0.34
CC(=O)N(O)CCCCCNC(=O)CCC(=O)N(O)CCCCCNC(=O)CCC(=O)N(O)CCCCCN | 0.272

----------
Test system: Staphylococcus aureus MW2 (mecA+)
Assay: normalized DsRed fluorescence (growth of mecA+ strain) (fraction of control range); higher = more growth of mecA+ strain
Conditions: compound concentration: 150 uM; cefoxitin: subinhibitory; fluorescent label: DsRed
Structures can show the parent of a compound that is named as a salt.
Measured normalized DsRed fluorescence accompanies every entry in the list below.
outcome_measure: normalized DsRed fluorescence

compound | outcome_measure | reported_value
Nc1nc(=O)[nH]cc1F | normalized DsRed fluorescence | 0.62
Nc1nc(=O)n([C@@H]2CS[C@H](CO)O2)cc1F | normalized DsRed fluorescence | 0.622
CN1CCCN=C1/C=C/c1cccc(O)c1 | normalized DsRed fluorescence | 0.787
COC(=O)[C@H]1[C@H]2C[C@@H]3c4[nH]c5cc(OC)ccc5c4CCN3C[C@H]2C[C@@H](OC(=O)c2cc(OC)c(OC)c(OC)c2)[C@@H]1OC | normalized DsRed fluorescence | 1.04
COc1ccccc1OCC(O)CO (stereo not given) | normalized DsRed fluorescence | 0.991
CCCCCC(C)N (stereo not given) | normalized DsRed fluorescence | 0.663
CCN(CC)C(=O)c1cccc(C)c1 | normalized DsRed fluorescence | 1.18
CCCCCCCCCC(=O)N[C@@H](Cc1c[nH]c2ccccc12)C(=O)N[C@H](CC(N)=O)C(=O)N[C@@H](CC(=O)O)C(=O)N[C@@H]1C(=O)NCC(=O)N[C@@H](CCCN)C(=O)N[C@@H](CC(=O)O)C(=O)N[C@H](C)C(=O)N[C@@H](CC(=O)O)C(=O)NCC(=O)N[C@H](CO)C(=O)N[C@@H]([C@H](C)CC(=O)O)C(=O)N[C@@H](CC(=O)c2ccccc2N)C(=O)O[C@@H]1C | normalized DsRed fluorescence | 0.064
N[C@@H](Cc1c[nH]c2ccccc12)C(=O)O | normalized DsRed fluorescence | 0.604
O=C1CCc2ccc(OCCCCN3CCN(c4cccc(Cl)c4Cl)CC3)cc2N1 | normalized DsRed fluorescence | 0.824
O=c1[nH]cnc2c1ncn2[C@@H]1O[C@H](CO)[C@@H](O)[C@H]1O | normalized DsRed fluorescence | 0.97
CCS(=O)(=O)CCn1c([N+](=O)[O-])cnc1C | normalized DsRed fluorescence | 1.08
CCC1NC(=O)c2cc(S(N)(=O)=O)c(Cl)cc2N1 (stereo not given) | normalized DsRed fluorescence | 0.513
CNC1(C)C2CCC(C2)C1(C)C (stereo not given) | normalized DsRed fluorescence | 0.669
CCCCCCCN(CC)CCCC(O)c1ccc(NS(C)(=O)=O)cc1 (stereo not given) [Ibutilide fumarate] | normalized DsRed fluorescence | 0.737
O=C([O-])C(O)[C@H](O)[C@@H](O)[C@H](O)[C@H](O)CO.O=C([O-])C(O)[C@H](O)[C@@H](O)[C@H](O)[C@H](O)CO.[Ca+2] (stereo not given in full) | normalized DsRed fluorescence | 0.718
NC(=O)N1c2ccccc2CC(=O)c2ccccc21 | normalized DsRed fluorescence | 0.408
CC(C)(C)NCC(O)c1ccc(O)c(CO)c1 (stereo not given) [Salbutamol sulfate (Albuterol)] | normalized DsRed fluorescence | 0.695
CC(C[N+](C)(C)C)OC(N)=O (stereo not given) | normalized DsRed fluorescence | 0.879
COc1cc(CNC(=O)CCCC/C=C/C(C)C)ccc1O | normalized DsRed fluorescence | 0.539
